system: Escherichia coli TOP10; test: shrunken log2 fold change of peptide-encoding DNA abundance (4.5 h post-induction vs induction); higher = less antimicrobial activity (less host growth inhibition); conditions: time post-induction: 4.5 h; library: site-saturation at positions 5, 18, 19, 20
Short version: shrunken log2 fold change at least 0.06 is YES, less is NO.

RRIRGRPPRLPRPRPRPCIFPRP :: YES
RRIRSRPPRLPRPRPRPCAVPRP :: NO
RRIRSRPPRLPRPRPRPCDAPRP :: NO

Task: Assess whether reported shrunken log2 fold change for RRIRHRPPRLPRPRPRPYYRPRP sits at 0.06 or higher.
Output: NO

Task: Assess whether reported shrunken log2 fold change for RRIRKRPPRLPRPRPRPAPIPRP sits at 0.06 or higher.
Output: YES

Task: Assess whether reported shrunken log2 fold change for RRIRIRPPRLPRPRPRPVKYPRP sits at 0.06 or higher.
Output: NO

Task: Assess whether reported shrunken log2 fold change for RRIRMRPPRLPRPRPRPNSAPRP sits at 0.06 or higher.
Output: NO

Task: Assess whether reported shrunken log2 fold change for RRIRERPPRLPRPRPRPFGPPRP sits at 0.06 or higher.
Output: NO

Task: Assess whether reported shrunken log2 fold change for RRIRSRPPRLPRPRPRPCAWPRP sits at 0.06 or higher.
Output: NO

Task: Assess whether reported shrunken log2 fold change for RRIRWRPPRLPRPRPRPVCFPRP sits at 0.06 or higher.
Output: YES

Task: Assess whether reported shrunken log2 fold change for RRIRNRPPRLPRPRPRPFIVPRP sits at 0.06 or higher.
Output: NO

Task: Assess whether reported shrunken log2 fold change for RRIRDRPPRLPRPRPRPQMTPRP sits at 0.06 or higher.
Output: YES

Task: Assess whether reported shrunken log2 fold change for RRIRIRPPRLPRPRPRPGMQPRP sits at 0.06 or higher.
Output: NO

Task: Assess whether reported shrunken log2 fold change for RRIRMRPPRLPRPRPRPIWWPRP sits at 0.06 or higher.
Output: YES

###

test system: Escherichia coli TOP10; assay: shrunken log2 fold change of peptide-encoding DNA abundance (4.5 h post-induction vs induction); higher = less antimicrobial activity (less host growth inhibition); settings: time post-induction: 4.5 h; library: site-saturation at positions 5, 18, 19, 20
Short version: shrunken log2 fold change at least 0.3 is label 1, less is label 0.

RRIRDRPPRLPRPRPRPHHNPRP :: label 0
RRIRPRPPRLPRPRPRPSPRPRP :: label 1
RRIRTRPPRLPRPRPRPTETPRP :: label 0
RRIRNRPPRLPRPRPRPDKCPRP :: label 0
RRIRWRPPRLPRPRPRPETTPRP :: label 0
RRIRLRPPRLPRPRPRPQATPRP :: label 0
RRIRCRPPRLPRPRPRPGAGPRP :: label 1

Lab note: next sequence to report on.
Task: Assess whether reported shrunken log2 fold change for RRIRCRPPRLPRPRPRPYCCPRP sits at 0.3 or higher.
Output: label 0

###

test system: Escherichia coli TOP10; assay: shrunken log2 fold change of peptide-encoding DNA abundance (4.5 h post-induction vs induction); higher = less antimicrobial activity (less host growth inhibition); details: time post-induction: 4.5 h; library: site-saturation at positions 5, 18, 19, 20
Listing of entries alongside the reported shrunken log2 fold change.
Answer with the value's number alone.

Task: Please look up its shrunken log2 fold change: RRIRWRPPRLPRPRPRPVFCPRP
Output: 0.119

Task: Please look up its shrunken log2 fold change: RRIRTRPPRLPRPRPRPLGFPRP
Output: 0.046

Task: Please look up its shrunken log2 fold change: RRIRVRPPRLPRPRPRPFWDPRP
Output: -0.0687

Task: Please look up its shrunken log2 fold change: RRIRHRPPRLPRPRPRPWYMPRP
Output: -0.324

Task: Please look up its shrunken log2 fold change: RRIRKRPPRLPRPRPRPNGVPRP
Output: 0.0149

Task: Please look up its shrunken log2 fold change: RRIRPRPPRLPRPRPRPCCRPRP
Output: -0.339

Task: Please look up its shrunken log2 fold change: RRIRFRPPRLPRPRPRPKRKPRP
Output: 0.425

Task: Please look up its shrunken log2 fold change: RRIRLRPPRLPRPRPRPQCAPRP
Output: 0.228

Task: Please look up its shrunken log2 fold change: RRIRARPPRLPRPRPRPQWCPRP
Output: -0.0868

Task: Please look up its shrunken log2 fold change: RRIRYRPPRLPRPRPRPFWVPRP
Output: -0.0684

Task: Please look up its shrunken log2 fold change: RRIRWRPPRLPRPRPRPHLYPRP
Output: -0.125

Task: Please look up its shrunken log2 fold change: RRIRQRPPRLPRPRPRPEVDPRP
Output: 0.0316

Task: Please look up its shrunken log2 fold change: RRIRPRPPRLPRPRPRPKQAPRP
Output: -0.0162

Task: Please look up its shrunken log2 fold change: RRIRDRPPRLPRPRPRPIHCPRP
Output: -0.135

Task: Please look up its shrunken log2 fold change: RRIRGRPPRLPRPRPRPSQFPRP
Output: 0.192

Task: Please look up its shrunken log2 fold change: RRIRRRPPRLPRPRPRPYVMPRP
Output: -0.882

Task: Please look up its shrunken log2 fold change: RRIRDRPPRLPRPRPRPTWQPRP
Output: 0.542

Task: Please look up its shrunken log2 fold change: RRIRERPPRLPRPRPRPPCIPRP
Output: -0.163

Task: Please look up its shrunken log2 fold change: RRIRMRPPRLPRPRPRPKPAPRP
Output: 1.55

Task: Please look up its shrunken log2 fold change: RRIRIRPPRLPRPRPRPFQKPRP
Output: -0.0135

Task: Please look up its shrunken log2 fold change: RRIRSRPPRLPRPRPRPGMHPRP
Output: -0.0823

Task: Please look up its shrunken log2 fold change: RRIRWRPPRLPRPRPRPRCWPRP
Output: 0.616

Task: Please look up its shrunken log2 fold change: RRIRDRPPRLPRPRPRPYMKPRP
Output: -0.152

Task: Please look up its shrunken log2 fold change: RRIRGRPPRLPRPRPRPPWVPRP
Output: 0.753

###

Listing of entries alongside the reported shrunken log2 fold change.
system: Escherichia coli TOP10; assay: shrunken log2 fold change of peptide-encoding DNA abundance (4.5 h post-induction vs induction); higher = less antimicrobial activity (less host growth inhibition); settings: time post-induction: 4.5 h; library: site-saturation at positions 5, 18, 19, 20
Answer with the value's number alone.

RRIRGRPPRLPRPRPRPHSMPRP :: 0.0488
RRIRCRPPRLPRPRPRPVGFPRP :: 0.0344
RRIRCRPPRLPRPRPRPHMPPRP :: -0.585
RRIRQRPPRLPRPRPRPIQEPRP :: -0.142
RRIRYRPPRLPRPRPRPNNEPRP :: -1.27
RRIRKRPPRLPRPRPRPEIYPRP :: -0.00723

Task: Please look up its shrunken log2 fold change: RRIRMRPPRLPRPRPRPMKIPRP
Output: -0.00146

Task: Please look up its shrunken log2 fold change: RRIRKRPPRLPRPRPRPDDYPRP
Output: 0.276

Task: Please look up its shrunken log2 fold change: RRIRWRPPRLPRPRPRPLCEPRP
Output: 0.337

Task: Please look up its shrunken log2 fold change: RRIRWRPPRLPRPRPRPIFHPRP
Output: -0.101

Task: Please look up its shrunken log2 fold change: RRIRYRPPRLPRPRPRPFLRPRP
Output: -0.308

Task: Please look up its shrunken log2 fold change: RRIRFRPPRLPRPRPRPCHLPRP
Output: -0.0779

Task: Please look up its shrunken log2 fold change: RRIRLRPPRLPRPRPRPCLAPRP
Output: -0.219

Task: Please look up its shrunken log2 fold change: RRIRHRPPRLPRPRPRPVVYPRP
Output: -0.186

###

test system: Escherichia coli TOP10; experiment: shrunken log2 fold change of peptide-encoding DNA abundance (4.5 h post-induction vs induction); higher = less antimicrobial activity (less host growth inhibition); details: time post-induction: 4.5 h; library: site-saturation at positions 5, 18, 19, 20;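 also: peptides expressed intracellularly from a pBAD plasmid library in pooled LB shake-flask culture, induced with 0.3% L-arabinose, DNA abundance read by NGS, three biological replicates, DESeq2 with apeglm shrinkage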
Short version: shrunken log2 fold change at least -0.02 is rule met, less is rule not met.

RRIRERPPRLPRPRPRPHGKPRP :: rule not met
RRIRSRPPRLPRPRPRPPKGPRP :: rule met
RRIRERPPRLPRPRPRPWSTPRP :: rule not met
RRIRHRPPRLPRPRPRPKPKPRP :: rule met
RRIRNRPPRLPRPRPRPLYEPRP :: rule not met
RRIRFRPPRLPRPRPRPYNHPRP :: rule not met
RRIRARPPRLPRPRPRPRVHPRP :: rule met
RRIRVRPPRLPRPRPRPMMFPRP :: rule not met
RRIRNRPPRLPRPRPRPDWLPRP :: rule met
RRIRYRPPRLPRPRPRPIERPRP :: rule met

Task: Assess whether reported shrunken log2 fold change for RRIRRRPPRLPRPRPRPFAPPRP sits at -0.02 or higher.
Output: rule met

Task: Assess whether reported shrunken log2 fold change for RRIRFRPPRLPRPRPRPQKCPRP sits at -0.02 or higher.
Output: rule not met

Task: Assess whether reported shrunken log2 fold change for RRIRNRPPRLPRPRPRPLQMPRP sits at -0.02 or higher.
Output: rule not met

Task: Assess whether reported shrunken log2 fold change for RRIRKRPPRLPRPRPRPARYPRP sits at -0.02 or higher.
Output: rule met

Task: Assess whether reported shrunken log2 fold change for RRIRKRPPRLPRPRPRPYFKPRP sits at -0.02 or higher.
Output: rule not met

Task: Assess whether reported shrunken log2 fold change for RRIRSRPPRLPRPRPRPVHVPRP sits at -0.02 or higher.
Output: rule not met

Task: Assess whether reported shrunken log2 fold change for RRIRNRPPRLPRPRPRPHVCPRP sits at -0.02 or higher.
Output: rule met

Task: Assess whether reported shrunken log2 fold change for RRIRHRPPRLPRPRPRPLGCPRP sits at -0.02 or higher.
Output: rule met

Task: Assess whether reported shrunken log2 fold change for RRIRRRPPRLPRPRPRPEYNPRP sits at -0.02 or higher.
Output: rule not met

Task: Assess whether reported shrunken log2 fold change for RRIRWRPPRLPRPRPRPGIYPRP sits at -0.02 or higher.
Output: rule not met

Task: Assess whether reported shrunken log2 fold change for RRIRRRPPRLPRPRPRPRWKPRP sits at -0.02 or higher.
Output: rule not met

Task: Assess whether reported shrunken log2 fold change for RRIRQRPPRLPRPRPRPMMIPRP sits at -0.02 or higher.
Output: rule not met

Task: Assess whether reported shrunken log2 fold change for RRIRNRPPRLPRPRPRPECNPRP sits at -0.02 or higher.
Output: rule met
